Test system: Total Acid Output
assay info: pylorus-ligated rat test, gastric antisecretory activity
Type: in vivo, rat (male Charles River Sprague-Dawley derived)
experimental setup: IP, 200 mg/kg
Recorded Percent Inhibition of Total Acid Output, one value per entry.
All answers are understood in %, so give the number only.

CC1(C)O[C@H]2[C@@H]3OS(=O)(=O)O[C@@H]3CO[C@@]2(COS(=O)(=O)N=[N+]=[N-])O1 [Example 15]: 96
CC1(C)O[C@H]2[C@@H]3OS(=O)(=O)O[C@@H]3CO[C@@]2(COS(=O)(=O)NC2CC2)O1 [Example 9]: 87
CC1(C)O[C@H]2[C@@H]3OS(=O)(=O)O[C@@H]3CO[C@@]2(COS(=O)(=O)NC2CCCCCCC2)O1 [Example 11]: 50

Proceeding to the next molecule to report its Percent Inhibition of Total Acid Output.
Field Percent Inhibition of Total Acid Output (entry NS(=O)(=O)OC[C@@]12OC[C@H]3OS(=O)(=O)O[C@H]3[C@@H]1OC1(CCCCC1)O2 [Example 21] ) reads 27
